Test system: SW1573;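 note: growth inhibition of SW1573 cells, read out with a cell viability assay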
Assay: cells
Type: functional, cell-based, Homo sapiens
Settings: sw1573
Description: SANGER: Inhibition of human SW1573 cell growth in a cell viability assay.
Recorded metric: pIC50
# reply with the number alone; pIC50 is -log10 of concentration in mol/L

Challenge: Supply reported pIC50 belonging to this sequence: `CISPLATIN`
Response given: 4.36

---

# IC50 per entry
System: D-247MG
Assay: cells
Type: functional, cell-based, Homo sapiens
Details: Homo sapiens, D-247MG
Description: SANGER: Inhibition of human D-247MG cell growth in a cell viability assay.

CN(C)C(=N)NC(=N)N	> 20000 µM
Nc1cccc2c1CN(C1CCC(=O)NC1=O)C2=O (stereo not given) [LENALIDOMIDE]	> 5 µM
CC[C@H](CO)Nc1nc(NCc2ccccc2)c2ncn(C(C)C)c2n1	12.4 µM
N#Cc1c(O)c2c(-c3ccc(-c4ccccc4O)cc3)csc2[nH]c1=O	> 1.02 µM

Challenge: Supply reported IC50 belonging to this compound: COc1cc2ncn(-c3cc(OCc4ccccc4S(C)(=O)=O)c(C#N)s3)c2cc1OC [GSK-319347A]
Response given: > 5 µM

---

# pIC50 per entry
Test system: NCI-H1092;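 note: cell growth inhibition measured with a cell viability assay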
Assay: cells
Format: functional, cell-based, Homo sapiens
Details: Homo sapiens, NCI-H1092
Description: SANGER: Inhibition of human NCI-H1092 cell growth in a cell viability assay.
pIC50: −log10 of the molar value.

Here are 10 molecules together with their reported answers.
CS(=O)(=O)c1ccc(C(=O)Nc2ccc(Cl)c(-c3ccccn3)c2)c(Cl)c1	< 5.00
COc1cc2c(Nc3ccc(NC(=O)c4ccccc4)cc3)ncnc2cc1OCCCN1CCOCC1	< 5.40
COc1cccc2c1C(=O)c1c(O)c3c(c(O)c1C2=O)C[C@@](O)(C(=O)CO)C[C@@H]3O[C@H]1C[C@H](N)[C@H](O)[C@H](C)O1	6.13
Cc1cn(-c2cc(NC(=O)c3ccc(C)c(Nc4nccc(-c5cccnc5)n4)c3)cc(C(F)(F)F)c2)cn1	< 5.70
CC(=O)O[C@H]1C(=O)[C@@]2(C)[C@H]([C@H](OC(=O)c3ccccc3)[C@]3(O)C[C@H](OC(=O)[C@H](O)[C@@H](NC(=O)c4ccccc4)c4ccccc4)C(C)=C1C3(C)C)[C@]1(OC(C)=O)CO[C@@H]1C[C@@H]2O	< 6.99
Nc1cccc2c1CN(C1CCC(=O)NC1=O)C2=O (stereo unspecified) [LENALIDOMIDE]	< 5.30
Oc1ccc2ccccc2c1SSc1c(O)ccc2ccccc12	< 4.49
O=C(O)c1ccc(-c2c[nH]c3ncc(-c4ccccc4)cc23)cc1C1CCCC1	< 4.80
CC[C@H](CO)Nc1nc(NCc2ccccc2)c2ncn(C(C)C)c2n1	< 4.80
CC1(C)CNc2cc(NC(=O)c3cccnc3NCc3ccncc3)ccc21	< 5.70

Switching to the query record.
Challenge: Supply reported pIC50 belonging to this molecule: `Cc1cc([N+](=O)[O-])ccc1NS(=O)(=O)c1cc(Cl)ccc1Cl`
Response given: < 4.49

---

System: ES7;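 note: growth inhibition of cultured human ES7 cells, read out as cell viability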
Experiment: cells
Type: functional, cell-based, Homo sapiens
Settings: Homo sapiens, ES7
Description: SANGER: Inhibition of human ES7 cell growth in a cell viability assay.
pIC50: −log10 of the molar value.
# pIC50 per entry

CN(C)C(=N)NC(=N)N	< 1.70
Cn1cnc2c(F)c(Nc3ccc(Br)cc3Cl)c(C(=O)NOCCO)cc21	< 5.40
Cc1ccc(-c2c(C(=O)CCl)n(CCCO)c3ncnc(N)c23)cc1	< 5.40

Challenge: Give pIC50 for this entry on ES7: `CC(C)c1ccccc1Cc1cc(C(=O)Nc2ccc(S(=O)(=O)c3ccccc3C(C)(C)C)cc2)c(O)c(O)c1O`
Response given: 6.57

Challenge: Give pIC50 for this entry on ES7: `COc1cc2c(Nc3ccc(NC(=O)c4ccccc4)cc3)ncnc2cc1OCCCN1CCOCC1`
Response given: < 5.40

Challenge: Give pIC50 for this entry on ES7: `CO[C@H]1C[C@@H]2CC[C@@H](C)[C@@](O)(O2)C(=O)C(=O)N2CCCC[C@H]2C(=O)O[C@H]([C@H](C)C[C@@H]2CC[C@@H](OC(=O)C(C)(CO)CO)[C@H](OC)C2)CC(=O)[C@H](C)/C=C(\C)[C@@H](O)[C@@H](OC)C(=O)[C@H](C)C[C@H](C)/C=C/C=C/C=C/1C`
Response given: 7.07

Challenge: Give pIC50 for this entry on ES7: `OCCCNc1cc(-c2ccnc(Nc3cccc(Cl)c3)n2)ccn1`
Response given: < 6.59

Challenge: Give pIC50 for this entry on ES7: `CC(=O)O[C@H]1C(=O)[C@@]2(C)[C@H]([C@H](OC(=O)c3ccccc3)[C@]3(O)C[C@H](OC(=O)[C@H](O)[C@@H](NC(=O)c4ccccc4)c4ccccc4)C(C)=C1C3(C)C)[C@]1(OC(C)=O)CO[C@@H]1C[C@@H]2O`
Response given: < 6.99

Challenge: Give pIC50 for this entry on ES7: `Oc1ccc2ccccc2c1SSc1c(O)ccc2ccccc12`
Response given: < 4.49
